TEST SYSTEM: T1, Human Id1: Histidine (human, UniProt P41134 1-155, limits assumed)
T1 construct: Fusion protein made in E. coli from vector pGW07; also called h-Id1: his; not shown: His tag
T1 sequence (looked up): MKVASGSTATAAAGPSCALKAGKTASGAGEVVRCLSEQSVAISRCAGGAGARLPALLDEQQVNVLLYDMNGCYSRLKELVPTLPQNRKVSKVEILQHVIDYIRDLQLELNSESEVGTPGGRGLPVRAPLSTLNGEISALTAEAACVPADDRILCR
ASSAY PROTOCOL: ELISA, Ab 0.100 µg/ml
Answer each item with its documented A450.
Please state the number and follow it with the unit.

rabbit monoclonal anti-mouse/human Id3, clone #BCH-4/#42-1 (antibody, V domains shown, Rabbit IgG from a rabbit hybridoma; also called m/h Id3 MoAb 42-1) VH: QSVEESGGRLVTPGTPLTLTCTASGFSLSSYYIHWVRQAPGKALEWIGYISDGGTTYYASWAKGRFTISKTSSTTVDLKMTSLTTEDTATYFCARQGFNIWGPGTLVTVSL VL: AVLTQTPSPVSAAVGGTVTISCQSSQSVYNNNWLSWFQQKSGQPPKLLIYETSKLESGVPSRFKGSGSGTQFTLTIIDVQCDDAATYYCLGGYWSTSDNNIFGGGTEVVVK = 0.047 A450
rabbit monoclonal anti-mouse/human Id3, clone #BCH-4/#6-1 (antibody, V domains shown, Rabbit IgG from a rabbit hybridoma; also called m/h Id3 MoAb 6-1) VH: QSVEESGGRLVTPGTPLTLTCTASGFSLSNVYIHWVRQAPGKGLEWIGYISDGDTARYATWAKGRFTISKTSSTTVNLKMTSLTTEDTATYFCARQGFNIWGPGTLVTVSL VL: AVLTQTPSPVSAAVGGTVSISCQSSQSVWNNNWLSWFQQKPGQPPKLLIYETSKLESGVPSRFKGSGSGTQFTLTISDVQCDDAATYYCLGGYWTTSDNNVFGGGTEVVVK = 0.049 A450
rabbit monoclonal anti-human Id3, clone #BCH-4/#3-3 (antibody, V domains shown, Rabbit IgG from a rabbit hybridoma; also called h Id3 MoAb 3-3) VH: QSVEESGGRLVTPGTPLTLTCTVSGIDLSSYAMSWVRQAPGKGLEWIGVIFPSNNVYYASWAKGRFTISKTSTTVDLKITSPTTEDTATYFCASMGAFDSWGPGTLVTVSS VL: QVLTQTPSPVSAAVGGTVTINCQASQSIYNDNDLAWFQQKPGQPPKLLIYDASTLTSGVPSRFKGSGSGTQFTLTISDLDCDDAATYYCAARYSGNIYGFGGGTEVVVK = 0.047 A450

# evaluate next
QUERY: Consider the binder rabbit monoclonal anti-mouse/human Id3, clone #BCH-4/#16-1 (antibody, V domains shown, Rabbit IgG from a rabbit hybridoma; also called m/h Id3 MoAb 16-1) VH: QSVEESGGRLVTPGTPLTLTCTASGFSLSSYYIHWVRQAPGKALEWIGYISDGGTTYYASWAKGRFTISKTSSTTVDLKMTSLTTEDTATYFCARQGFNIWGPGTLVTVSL VL: AVLTQTPSPVSAAVGGTVTISCQSSQSVYNNNWLSWFQQKSGQPPKLLIYETSKLESGVPSRFKGSGSGTQFTLTIIDVQCDDAATYYCLGGYWTTSDNNIFGGGTEVVVK and give its measured A450.
RESULT: 0.047 A450
